System: NOMO1
Experiment: cell viability relative to DMSO control; higher = less cytotoxic
Settings: HPLM + 10% dialyzed FBS; 48 h; 1.71 µM
Binary call on cell viability with cut-off 90%: strictly below means condition met, and equality or higher means condition not met.

Reference set, count: 3
* C[N+](C)([O-])CCNc1ccc(NCC[N+](C)(C)[O-])c2c1C(=O)c1c(O)ccc(O)c1C2=O | condition met
* NC\1=N\C(=O)N(\C=C1)[C@H]\2[C@H](O)[C@H](O)C(=C2F)\CO | condition met
* O=C1N\2CCC3=C([NH]C4=C3C=CC=C4)C2=N/C5=CC=CC=C15 | condition not met

// next entry
Strictly below 90% in cell viability? CCCCCCCCCCCCCCCCCCOP(=O)([O-])OC1CC[N+](C)(C)CC1
condition not met

* * *

Catalogue of cell viability values
Tested on: NOMO1
Experiment: cell viability relative to DMSO control; higher = less cytotoxic
Details: HPLM + 10% dialyzed FBS; 48 h; 0.0211 µM
Please respond with the number in % and leave the unit unwritten.

Some molecules with known cell viability results, for comparison:
* CN[S+](=O)([O-])CCc1ccc2[nH]cc(C3CCN(C)CC3)c2c1 | 114
* CC[C@@]1(O)C[C@H](O[C@H]2C[C@H](N(C)C)[C@H](O[C@H]3C[C@H](O)[C@H](O[C@H]4CCC(=O)[C@H](C)O4)[C@H](C)O3)[C@H](C)O2)c2c(cc3c(c2O)C(=O)c2c(O)cccc2C3=O)[C@H]1C(=O)OC | 106
* N[C@@H](CC(=O)N1CCn2c(nnc2C(F)(F)F)C1)Cc1cc(F)c(F)cc1F | 119

Look up cell viability: COc1cccc2c1C(=O)c1c(O)c3c(c(O)c1C2=O)C[C@@](O)(C(C)=O)C[C@@H]3O[C@H]1C[C@H](N)[C@H](O)[C@H](C)O1
114

Look up cell viability: COC[C@H]1OC(=O)C2=COC3=C2[C@@]1(C)\C4=C(\[C@@H]5CC[C@H](O)[C@@]5(C)C[C@H]4OC(C)=O)C3=O
111

Look up cell viability: C=CCn1c(=O)c2cnc(Nc3ccc(N4CCN(C)CC4)cc3)nc2n1-c1cccc(C(C)(C)O)n1
122

Look up cell viability: CC(=O)O[C@@]12CO[C@@H]1C[C@H](O)[C@]3(C)[C@@H]2[C@H](OC(=O)C4=CC=CC=C4)[C@]5(O)C[C@H](OC(=O)C(O)[C@@H](NC(=O)OC(C)(C)C)C6=CC=CC=C6)C(=C(/[C@@H](O)C3=O)C5(C)C)/C (stereo not given in full)
39.4

Look up cell viability: C#C[C@]1(O)CC[C@H]2[C@@H]3CCc4cc(OC)ccc4[C@H]3CC[C@@]21C
118

Look up cell viability: O=C1CCc2ccc(OCCCCN3CCN(c4cccc(Cl)c4Cl)CC3)cc2N1
77.7

Look up cell viability: O=[N+]([O-])c1cnc(Sc2nnc(O)n2-c2ccc3c(c2)OCCO3)s1
102

* * *

Test system: SEM cells
Assay: cell viability relative to DMSO control; higher = less cytotoxic
Settings: RPMI 5 mM glucose + 10% FBS; 48 h; 0.00702 µM
Catalogue of cell viability values
Please respond with the number in % and leave the unit unwritten.

* COc1cc(N[S+](=O)([O-])c2ccc(N)cc2)nc(OC)n1 | 90.6

Look up cell viability: Cc1ccc(C(=O)c2cc(O)c(O)c([N+](=O)[O-])c2)cc1
103

Look up cell viability: CCN(C)C(=O)Oc1cccc([C@H](C)N(C)C)c1
108

Look up cell viability: NC\1=N\C(=O)N(\C=C1)[C@H]\2[C@H](O)[C@H](O)C(=C2F)\CO
130

Look up cell viability: COc1cc(OC)c(NC(=O)Nc2cc(C)on2)cc1Cl
90.9

* * *

System: SEM cells
Assay: cell viability relative to DMSO control; higher = less cytotoxic
Details: HPLM + 10% dialyzed FBS; 48 h; 5.12 µM
Catalogue of cell viability values
Please respond with the number in % and leave the unit unwritten.

- Cc1cc(O)c2c(c1)C(=O)c1cc(O)cc(O)c1C2=O: 106
- CC1(C)CC(O)CC(C)(C)N1[O]: 89.5
- O=C1NC(=O)/C(=C/c2cccc(C(F)(F)F)c2)S1: 107

Look up cell viability: NC(=O)Nc1cc(-c2ccc(CN3CCOCC3)cc2)sc1C(N)=O
12.9

Look up cell viability: NCC(=O)Nc1ccc(-n2nc(C(F)(F)F)cc2-c2ccc3c(ccc4ccccc43)c2)cc1
113

* * *

Test system: P12-Ichikawa
Assay: cell viability relative to DMSO control; higher = less cytotoxic
Conditions: RPMI 5 mM glucose + 10% FBS; 48 h; 0.00234 µM
Catalogue of cell viability values
Please respond with the number in % and leave the unit unwritten.

Some molecules with known cell viability results, for comparison:
* COc1cc(OC)c(NC(=O)Nc2cc(C)on2)cc1Cl | 95.9
* Cc1c(C(=O)Nc2cccc(C(F)(F)F)c2)cc(-c2ccccc2)n1CCCN1CCOCC1 | 109
* COc1cc(N[S+](=O)([O-])c2ccc(N)cc2)nc(OC)n1 | 106

Now look at this entry.
Look up cell viability: CC(=O)O[C@@]12CO[C@@H]1C[C@H](O)[C@]3(C)[C@@H]2[C@H](OC(=O)C4=CC=CC=C4)[C@]5(O)C[C@H](OC(=O)C(O)[C@@H](NC(=O)OC(C)(C)C)C6=CC=CC=C6)C(=C(/[C@@H](O)C3=O)C5(C)C)/C (some centres undefined)
32.1

* * *

Tested on: SEM cells
Assay: cell viability relative to DMSO control; higher = less cytotoxic
Settings: RPMI 5 mM glucose + 10% dialyzed FBS; 48 h; 46.1 µM
property_label: cell viability (%)
Please respond with the number in % and leave the unit unwritten.

Look up cell viability: CC(=O)[C@H]1CC[C@H]2[C@@H]3CCC4=CC(=O)CC[C@]4(C)[C@H]3CC[C@]12C
90.7

* * *

Test system: NOMO1
Assay: cell viability relative to DMSO control; higher = less cytotoxic
Conditions: RPMI 5 mM glucose + 10% FBS; 48 h; 46.1 µM
Catalogue of cell viability values
Please respond with the number in % and leave the unit unwritten.

- N#CC(=C(/N)Sc1ccccc1N)/C(C#N)=C(\N)Sc1ccccc1N: 97.8
- CCN(C)C(=O)Oc1cccc([C@H](C)N(C)C)c1: 98.4
- Cc1c(C(=O)Nc2cccc(C(F)(F)F)c2)cc(-c2ccccc2)n1CCCN1CCOCC1: 95.2
- CC(C)C[C@H](NC(=O)[C@H](Cc1ccccc1)NC(=O)c1cnccn1)B(O)O: -0.312
- COc1ccc(Nc2cc(-c3cnc(N)nc3)nc(N3CCOCC3)n2)cn1: 52.7
- COC1=CC=C(C=C1)C2CC(=N/N2C3=CC=C(C=C3)[S+](N)([O-])=O)\C4=CC=CC=C4 (configuration not stated): 2.12
- COc1cc([C@@H]2c3cc4c(cc3[C@@H](O[C@@H]3O[C@@H]5CO[C@@H](c6cccs6)O[C@H]5[C@H](O)[C@H]3O)[C@H]3COC(=O)[C@H]23)OCO4)cc(OC)c1O: 12.7
- O=C(CCc1ccc(O)cc1)c1c(O)cc(O)cc1O[C@@H]1O[C@H](CO)[C@@H](O)[C@H](O)[C@H]1O: 84.8

Look up cell viability: C=CCn1c(=O)c2cnc(Nc3ccc(N4CCN(C)CC4)cc3)nc2n1-c1cccc(C(C)(C)O)n1
18.6

Look up cell viability: NC(=O)Nc1cc(-c2ccc(CN3CCOCC3)cc2)sc1C(N)=O
49.6

Look up cell viability: COC1=CC2=C(C=C1OC)[C@H]3[C@@H](CO2)OC4=C(C=CC5=C4\C=C/C(C)(C)O5)C3=O
9.87

Look up cell viability: CN(C)c1ccc2cc(C(=O)N[C@@H](CCCNC(=N)CCl)C(=O)NCc3ccccc3)ccc2c1
8.34

Look up cell viability: Cc1[nH]c(/C=C2\C(=O)Nc3ccc([S+](=O)([O-])Cc4c(Cl)cccc4Cl)cc32)c(C)c1C(=O)N1CCC[C@@H]1CN1CCCC1
79.6

Look up cell viability: Oc1cc(O)cc(/C=C/c2ccc(O)c(O)c2)c1
70.8

Look up cell viability: CN[C@@H]1C[C@H]2O[C@@](C)([C@@H]1OC)n1c3ccccc3c3c4c(c5c6ccccc6n2c5c31)C(=O)N[C@H]4O
3.97

Look up cell viability: C[N+](C)([O-])CCNc1ccc(NCC[N+](C)(C)[O-])c2c1C(=O)c1c(O)ccc(O)c1C2=O
19.8

Look up cell viability: O=C1CCc2ccc(OCCCCN3CCN(c4cccc(Cl)c4Cl)CC3)cc2N1
77.6

* * *

Catalogue of cell viability values
Test system: SEM cells
Assay: cell viability relative to DMSO control; higher = less cytotoxic
Details: RPMI 5 mM glucose + 10% dialyzed FBS; 48 h; 5.12 µM
Please respond with the number in % and leave the unit unwritten.

Some compounds with known cell viability results, for comparison:
- CN(C)CCN(Cc1ccc(Cl)cc1)c1ccccn1.Cl: 92.2
- NCC(=O)Nc1ccc(-n2nc(C(F)(F)F)cc2-c2ccc3c(ccc4ccccc43)c2)cc1: 100
- CN1C(=O)/C=C(/NCCN(CCO)CCCC2=CC=C(C=C2)[N+]([O-])=O)N(C)C1=O: 121
- C[C@@H]1C[C@H]2[C@@H]3CC\C4=C\C(=O)\C=C/[C@]4(C)[C@@]3(Cl)[C@@H](O)C[C@]2(C)[C@@]1(OC(=O)C5=CC=CO5)C(=O)CCl: 28.8
- OCCCNc1cc(-c2ccnc(Nc3cccc(Cl)c3)n2)ccn1: 6.76
- OC(COC1=C2C(=O)\C=C(/OC2=CC=C1)C([O-])=O)COC3=C4C(=O)\C=C(/OC4=CC=C3)C([O-])=O: 102

Look up cell viability: COC[C@H]1OC(=O)C2=COC3=C2[C@@]1(C)\C4=C(\[C@@H]5CC[C@H](O)[C@@]5(C)C[C@H]4OC(C)=O)C3=O
84.7

Look up cell viability: COc1cc(OC)c(NC(=O)Nc2cc(C)on2)cc1Cl
101

Look up cell viability: NC\1=N\C(=O)N(\C=C1)[C@H]\2[C@H](O)[C@H](O)C(=C2F)\CO
23.1

Look up cell viability: O=[N+]([O-])c1cnc(Sc2nnc(O)n2-c2ccc3c(c2)OCCO3)s1
77.9

Look up cell viability: CC(C)c1ccccc1Cc1cc(C(=O)Nc2ccc([S+](=O)([O-])c3ccccc3C(C)(C)C)cc2)c(O)c(O)c1O
32.7

Reference source: the supplement of paper PMC11451515
